system: MOLT-4; test: NCI tumour cell line growth inhibition, 48 h
Activity calls are given as the source filed them. No stated cut-off is given here; in the data, active = GI50 up to about 1.1 µM and inactive = higher.
Give GI50 for every item shown.

Solved cases (3 shown):
Compound	Recorded result
CCOP(=O)(OCC)/C(C#N)=C/c1cnc(C)[nH]1	> 100 µM (inactive)
O=C1Nc2ccccc2/C1=N/NC(=O)c1ccccc1O	29 µM (inactive)
CC(=O)OC1(C#N)CC2OC1C1NC21 (centres undefined)	> 100 µM (inactive)

Give GI50 for each listed item.
1. Clc1ccc(-c2c3nc(c(-c4ccc(Cl)cc4)c4ccc([nH]4)c(-c4ccc(Cl)cc4)c4nc(c(-c5ccc(Cl)cc5)c5ccc2[nH]5)C=C4)C=C3)cc1
2. COC(=O)C1(Cc2ccccc2)Cc2cc3c(cc2C1O)CCC3 (centres undefined)

1. > 100 µM (inactive)
2. 17.5 µM (inactive)

Give GI50 for each listed item.
1. CC(=O)OCC12C(OC(C)=O)C(=O)C3C(OC(C)=O)C14OC3(C)COC(=O)c1cccnc1C(C)C(C)C(=O)OC(C(OC(C)=O)C2OC(C)=O)C4(C)O (centres undefined)
2. O=C1c2ccccc2C(=O)c2c1ccc1nc3c(nc21)-c1c2ccccc2cc2cccc-3c12

1: 52.2 µM (inactive); 2: 18.6 µM (inactive)

Give GI50 for each listed item.
1. CSc1nc2[nH]c(=O)c(C)nc2c(=O)[nH]1
2. O=C1NC(=O)C2C1N(Cc1ccccc1)C(=O)N2Cc1ccccc1 (centres undefined)

["> 100 µM (inactive)", "> 100 µM (inactive)"]

###

test system: OVCAR-3; test: NCI tumour cell line growth inhibition, 48 h
Activity calls are given as the source filed them. No stated cut-off is given here; in the data, active = GI50 up to about 1.1 µM and inactive = higher.
Please reply with one of these outcomes: active, inactive

Past entries and their recorded results:
                                   compound  class_assignment
0                          NC1(C(=O)O)CCCC1          inactive
1   COc1cccc(-c2cc(O)c3cc(N4CCCC4)ccc3n2)c1            active
2  N#CC(C#N)=c1c2nsnc2c(=C(C#N)C#N)c2nsnc12          inactive
3  O=c1/c(=C/c2ccccn2)sc2nc3cc4c(cc3n12)OCCO4          inactive
4  CN(C)CC1CCCC(CN(C)C)C1=NOC(=O)c1ccccc1 (stereo unspecified)          inactive

With those in mind, consider the next compound.
What did this assay record as the result for COc1cccc2c1[C@H]1OC(=O)NC1CCCCC2 (stereo partly specified) ? inactive

###

system: MDA-MB-231; assay: NCI tumour cell line growth inhibition, 48 h
Activity calls are given as the source filed them. No stated cut-off is given here; in the data, active = GI50 up to about 1.1 µM and inactive = higher.
Give GI50 for every item shown.

Solved cases (2 shown):
In [3]: df
Out[3]:
                               query_smiles  measured_parameter      recorded_result
0  CCOC(=O)c1c(N2CCCC2)[nH]c(=O)c(C(c2ccco2)c2c(O)c(C(=O)OCC)c(N3CCCC3)[nH]c2=O)c1O                GI50  > 100 µM (inactive)
1            CNC(=O)CCCNC(=O)CCCCC(=O)N(C)C                GI50  > 100 µM (inactive)

Now let's try a different one.
Tell me the measured GI50 of "COC(=O)/N=[N+](\[O-])C(c1ccc(Cl)cc1)c1ccc(Cl)cc1" , please. 1.75 µM (inactive)
